Source of measurements: PubChem BioAssay (NCI)

Test system: SNB-75 CNS
assayMethodText: NCI tumour cell line growth inhibition, 48 h
Provide the recorded TGI for the entries that follow.
Give bare numbers, in µM.

Known TGI results, listed for orientation:
INSERT INTO measurements (compound, endpointresult) VALUES
  ('CSc1sc(=S)sc1C(=O)N(C)c1ccccc1', 82.5),
  ('O=[N+]([O-])c1cc2c(c([N+](=O)[O-])c1)NCc1ccccc1O2', 48.2),
  ('C=CCc1ccccc1CC1(OCC)OC(=O)c2ccccc21 (stereo not drawn)', 53.1),
  ('CC(NCCC(=O)N(CCC(=O)N(CCC(=O)N(CCC(=O)N(CCC(=O)N(CCC(=O)N(CCC(=O)N(CCC(=O)N(CCC(=O)N(CCC(=O)O)[C@H](C)c1ccccc1)[C@H](C)c1ccccc1)[C@H](C)c1ccccc1)[C@H](C)c1ccccc1)[C@H](C)c1ccccc1)[C@H](C)c1ccccc1)[C@H](C)c1ccccc1)[C@H](C)c1ccccc1)[C@H](C)c1ccccc1)c1ccccc1 (stereo partly drawn)', 41.1);

As a next step, examine the compound that follows.
The compound identified as Cc1ccc2c(c1)CC1(Cc3c(C)cccc3C1=O)C2=O (stereo not drawn) registered its TGI at 89.7

* * *

Test system: SF-268 CNS
assayMethodText: NCI tumour cell line growth inhibition, 48 h
measurementKind: TGI

Known TGI results, listed for orientation:
INSERT INTO results (compound, measurementkind, endpointresult) VALUES
  ('COc1cc(/C=C2\C(=O)N(c3ccccc3Cl)C(c3ccccc3)S2(=O)=O)cc(OC)c1OC (stereo not drawn)', 'TGI', '> 100 µM'),
  ('COC(=O)C(Cc1ccc(Oc2cc(CC(NC(=O)c3ccccc3)C(=O)OC)ccc2OC)cc1)NC(=O)c1ccccc1 (stereo not drawn)', 'TGI', '48.9 µM'),
  ('S=C1CSc2c(ccc3ccccc23)N1', 'TGI', '> 100 µM'),
  ('CN(C)CCCN1c2ccccc2C(C)(C)c2ccccc21', 'TGI', '27.2 µM'),
  ('CN1CCCOC(c2ccc([N+](=O)[O-])cc2)O1 (stereo not drawn)', 'TGI', '> 100 µM');

Provide each entry's TGI from the list below.
1. CC(NCCC(=O)N(CCC(=O)N(CCC(=O)N(CCC(=O)N(CCC(=O)N(CCC(=O)N(CCC(=O)N(CCC(=O)N(CCC(=O)N(CCC(=O)O)[C@H](C)c1ccccc1)[C@H](C)c1ccccc1)[C@H](C)c1ccccc1)[C@H](C)c1ccccc1)[C@H](C)c1ccccc1)[C@H](C)c1ccccc1)[C@H](C)c1ccccc1)[C@H](C)c1ccccc1)[C@H](C)c1ccccc1)c1ccccc1 (stereo partly drawn)
2. NCCN.NCCN.O=C([O-])CCl.O=C([O-])CCl.[Co+3].[O-][Cl+3]([O-])([O-])[O-]
3. O=C1CCCC(=O)N1CCc1c[nH]c2ccccc12
4. COc1cc([C@H]2CC(=O)C[C@H](c3cc(OC)c(OC)c(OC)c3)C23C(=O)c2ccccc2C3=O)cc(OC)c1OC

1: > 38.7 µM; 2: > 100 µM; 3: > 100 µM; 4: > 100 µM

Provide each entry's TGI from the list below.
1. COCn1cnc2c(=O)n(-c3ccc(OC)cc3)c(=S)n(-c3ccc(OC)cc3)c21
2. Cc1ccc(/C=C2\CN(C)CC3C2=NN(c2ccccc2)C3c2ccc(C)cc2)cc1 (stereo not drawn)
3. CC(=O)N(C(C)=O)n1c(-c2ccccc2)n[nH]c1=O
4. COc1ccc(N2C(=O)C3c4[nH]c5ccccc5c4C4CC(C)CC(C)C4C3C2=O)cc1 (stereo not drawn)
5. CCN(C(C)=O)c1cnc(/C=N/NC(N)=S)c2ccccc12
6. CCOC(=O)/C(=C\c1ccc(C#N)cc1)C(C)=O
7. O=C(O)c1cc(-c2ccncc2)nc2ccccc12

> 100 µM
> 100 µM
> 100 µM
> 100 µM
> 100 µM
87.2 µM
> 100 µM

Provide each entry's TGI from the list below.
1. COc1cc(/C=N/NC(=O)c2cnn3c2NC(c2ccccc2)C3)ccc1Oc1ccccc1 (stereo not drawn)
2. CSc1sc(=S)sc1C(=O)N(C)c1ccccc1

["14.6 µM", "> 100 µM"]
